For each record, write down the corresponding z-score.
assay: osmotic lysis modulators in infected erythrocytes, primary screen, PSAC antagonist project, cell-based, P. falciparum Indochina, OD700, 3 h (AID 1156); details: higher = more signal, called active from +8 up or from −8 down
Please reply with the number alone, leaving off any unit.

Query: GET /values?readout=z-score&item= C[n+]1ccc(-c2ccc(CO)cc2)cc1
Response: -1.05

Query: GET /values?readout=z-score&item= C[C@@H]1CC[C@H]2C(=O)O[C@@H](Cc3ccccc3)CN2[C@H]1c1ccc(Br)cc1
Response: 0.277

Query: GET /values?readout=z-score&item= CO[C@H]1COC(=O)CCC[C@@H](C)[C@H](OC)COC(=O)[C@@H]2CCCN2C(=O)CC=C[C@@H]1C
Response: -0.186

Query: GET /values?readout=z-score&item= COc1ccc(O[C@@H]2[C@H](O)CO[C@@H]2C=Cc2ccccc2)cc1
Response: 1.23

Query: GET /values?readout=z-score&item= CCN1C(=O)[C@H]2[C@H]3[C@H](O)[C@H](O)CC(=NNC(=O)OCc4ccc(OC)cc4)[C@@H]3CC[C@H]2C1=O
Response: -0.703

Query: GET /values?readout=z-score&item= CCC(=O)[C@@]1(O)C(=O)N2C(=C3C(=O)OCC[C@@H]31)N(Cc1ccccc1)C(C)=C(C(=O)OC)[C@H]2c1ccccc1
Response: -0.242

Query: GET /values?readout=z-score&item= O=C1CCCC(C2=CCCCC2=O)C1 (stereo not drawn)
Response: 0.231

Query: GET /values?readout=z-score&item= CON=C(C)CCC(=O)OC[C@H]1O[C@H](c2ccccc2)C=C[C@@H]1Oc1ccc(OC)cc1
Response: 12.7

Query: GET /values?readout=z-score&item= CCC1=NOC(CCC2CC(OC(=O)NCc3cccc4c3OCO4)CC3(CCCC(COC(=O)NCCc4ccccc4OC)O3)O2)C1 (stereo not drawn)
Response: -0.501

Query: GET /values?readout=z-score&item= COc1ccc(O[C@H]2C=C[C@@H](c3ccccc3)O[C@@H]2COC(=O)CCC(C)=NO[C@@H]2O[C@H](COC(C)=O)[C@@H](OC(C)=O)[C@H](OC(C)=O)[C@H]2OC(C)=O)cc1
Response: 1.1

Query: GET /values?readout=z-score&item= Cn1c(=O)n2n(c1=O)[C@H]1[C@H](O)[C@@H]3O[C@@H]3C(=O)[C@H]1CC2
Response: -0.596

Query: GET /values?readout=z-score&item= COC(=O)CC=C[C@@H](C)[C@@H](C=NOC[C@H]1O[C@H](c2ccccc2)C=C[C@@H]1Oc1ccc(OC)cc1)NS(=O)(=O)c1ccc(C)cc1
Response: 0.949

Query: GET /values?readout=z-score&item= COc1ccc(O[C@H]2C=C[C@@H](c3ccccc3)O[C@@H]2COC(=O)CCC(C)=NOC[C@@H](O)[C@H]2O[C@@H]3OC(C)(C)O[C@@H]3[C@H]2O)cc1
Response: 1.11

----------
target: Dickkopf-related protein 1 (Homo sapiens) (UniProt O94907); assay: DKK1 binders on small-molecule microarrays, primary screen, biochemical, small-molecule microarray, 635 nm fluorescence scan (AID 1106); conditions: DKK1 binding, higher = more signal;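 further: score merges emission near 667 nm with signal to noise over three replicate slides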
Sequence (O94907 whole entry, looked up): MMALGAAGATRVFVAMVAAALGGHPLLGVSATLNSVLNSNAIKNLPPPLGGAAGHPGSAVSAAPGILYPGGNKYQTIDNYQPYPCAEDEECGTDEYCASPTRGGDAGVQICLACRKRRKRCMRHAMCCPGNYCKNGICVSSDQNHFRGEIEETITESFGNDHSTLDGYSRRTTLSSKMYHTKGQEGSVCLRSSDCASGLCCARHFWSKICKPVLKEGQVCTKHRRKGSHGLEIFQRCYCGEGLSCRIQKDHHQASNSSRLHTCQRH
Returns one of MET or NOT MET; MET when composite z-score is >= 0.4.

Query: // inclusive: composite z-score at least 0.4? input: CCOC(=O)[C@H](CC(C)C)NC(=O)CCC1CC(OC(=O)NCc2cccc3ccccc23)CC2(CCCC(COC(=O)NCc3ccncc3)O2)O1 (stereo not given in full)
Response: MET

Query: // inclusive: composite z-score at least 0.4? input: Cc1ccc(S(=O)(=O)OC[C@H]2CN3[C@H](c4ccc(Br)cc4)[C@@H](C)CC[C@H]3C(=O)O2)cc1
Response: MET

Query: // inclusive: composite z-score at least 0.4? input: COC(=O)[C@H](C)NC(=O)CCC1CC(OC(=O)NCc2cccc3ccccc23)CC2(CCCC(COC(=O)NCC(c3ccccc3)c3ccccc3)O2)O1 (stereo not given in full)
Response: NOT MET

Query: // inclusive: composite z-score at least 0.4? input: CC(C)CON=C1C[C@@H](O)[C@@H](O)[C@@H]2[C@@H]3C(=O)N(c4ccc(F)cc4F)C(=O)[C@@H]3CC[C@H]12
Response: MET

----------
test: adipocyte viability effects, profiling panel, cell-based, 3T3-L1 adipocytes, calcein-AM fluorescence, 48 h, basal (AID 1163); details: 3T3-L1 adipocytes viability, higher = more signal
experimentalReadout: z-score
Please reply with the number alone, leaving off any unit.

Query: GET /values?readout=z-score&item= CCCCC#C[C@@H]1C=C[C@H](Oc2ccc(C(=O)OC)cc2)[C@@H](COC(=O)OCC)O1
Response: 0.416

Query: GET /values?readout=z-score&item= COc1ccc(O[C@H]2C=C[C@@H](c3ccccc3)O[C@@H]2CON=CC[C@@H]2C=C[C@H](OC(C)=O)[C@@H](COC(C)=O)O2)cc1
Response: -0.0129

Query: GET /values?readout=z-score&item= Cc1cc2c(nc1C)CCCCN2CC(C)ON=C1[C@H]2CCn3c(=O)n(-c4ccccc4)c(=O)n3[C@H]2[C@H](O)[C@@H]2O[C@H]12 (some centres undefined)
Response: -0.0663

Query: GET /values?readout=z-score&item= CCOC(=O)[C@H](CC(C)C)NC(=O)CCC1CC(OC(=O)NCc2ccc3c(c2)OCO3)CC2(CCCC(COC(=O)NCCCN3CCCC3=O)O2)O1 (some centres undefined)
Response: -0.268

----------
test: basal S. cerevisiae growth modulation, no modifier, primary screen, OD600, strain BY4716, 24 h, basal condition (AID 1173); conditions: OD600, 24 h, higher = more signal, called active from +8 up or from −8 down
Active and inactive are the calls of the source.
experimentalReadout: z-score

Query: GET /values?readout=z-score&item= CCCCC#C[C@@H]1C=C[C@H](Oc2cc(OC)c(OC)c(OC)c2)[C@@H](COC(=O)OCC)O1
Response: -0.535 (inactive)

Query: GET /values?readout=z-score&item= C#CCCCON=C1C[C@@H](O)[C@@H](O)[C@@H]2[C@@H]3C(=O)N(c4ccc(F)cc4F)C(=O)[C@@H]3CC[C@H]12
Response: -0.98 (inactive)

Query: GET /values?readout=z-score&item= CCCCC#C[C@@H]1C=C[C@H](Oc2ccc(C(=O)OC)cc2)[C@@H](COC(=O)OCC)O1
Response: -4.46 (inactive)

----------
tested on: XIP peptide (Xip251-270) binding; assay: small-molecule binders of XIP peptide, primary screen, biochemical, small-molecule microarray, fluorescence 635/667 nm, 0.1 µg/mL protein (AID 1182); settings: fluorescent protein binding, 635 nm, higher = more signal, called active from +8 up or from −8 down
experimentalReadout: composite z-score
Please reply with the number alone, leaving off any unit.

Query: GET /values?readout=composite z-score&item= CC[C@@H](c1ccccc1)n1c(=O)n2n(c1=O)[C@H]1[C@H](O)[C@@H]3O[C@@H]3C(=NOC[C@@H](O)COCc3ccco3)[C@H]1CC2
Response: -0.0593

Query: GET /values?readout=composite z-score&item= COc1ccc(O[C@H]2C=C[C@@H](c3ccccc3)O[C@@H]2CON=CC[C@@H]2C=C[C@H](OC(C)=O)[C@@H](COC(C)=O)O2)cc1
Response: 0.21

Query: GET /values?readout=composite z-score&item= COc1ccc(O[C@@H]2[C@H](O)CO[C@@H]2C=Cc2ccccc2)cc1
Response: 0.196

Query: GET /values?readout=composite z-score&item= O=C1OCCC=C1C(O)CCc1ccccc1 (stereo not given)
Response: 0.321

Query: GET /values?readout=composite z-score&item= CC(CCN1CCCCc2nc(C)c(C)cc21)=NOC[C@@H](C)[C@H](OCc1ccccc1)C(C)C
Response: -0.494

Query: GET /values?readout=composite z-score&item= CC(C)C[C@H](NC(=O)CCC1CC(OC(=O)NCc2cccc3ccccc23)CC2(CCCC(COC(=O)NCc3ccccc3)O2)O1)C(=O)NCC(c1ccccc1)c1ccccc1 (stereo not given in full)
Response: -0.284

Query: GET /values?readout=composite z-score&item= COC(=O)[C@@H]1CC[C@H](C)[C@@H](c2ccc(C)cc2)N1C(=O)c1ccc(C=NO[C@@H]2O[C@H](COC(C)=O)[C@@H](OC(C)=O)[C@H](OC(C)=O)[C@H]2OC(C)=O)cc1
Response: -0.279

Query: GET /values?readout=composite z-score&item= CC(CCN1CCCCc2nc(C)c(C)cc21)=NO[C@@H](C)c1cn([C@H](CO)Cc2ccccc2)nn1
Response: 0.305

Query: GET /values?readout=composite z-score&item= CCOC(=O)NN=C1C[C@@H](O)[C@@H](O)[C@@H]2[C@@H]3C(=O)N(c4ccc(F)cc4F)C(=O)[C@@H]3CC[C@@H]12
Response: 0.015

Query: GET /values?readout=composite z-score&item= CCOC(=O)[C@H](Cc1ccccc1)NC(=O)OC1CC(CCC2CC(CC)=NO2)OC2(CCCC(COC(=O)NCCC(C)C)O2)C1 (stereo not given in full)
Response: 0.654
